# assay explanation: Passive permeability of the compound in pH 7.4 PBS at 10 uM after 5 hrs by UPLC-MS/MS method based PAMPA
# Type: ADME
# experimental parameters: pH 7.4, 5 h
assay endpoint: permeability

1. CC(=O)NC1(C(=O)N[C@H](C(=O)N2C[C@H](O)C[C@H]2C(=O)NCc2ccc(-c3scnc3C)cc2)C(C)(C)C)CC1 ... 0.01 ×10⁻⁶ cm/s
2. Cc1ncsc1-c1ccc(CNC(=O)[C@@H]2C[C@@H](O)CN2C(=O)[C@@H](NC(=O)C2(F)CC2)C(C)(C)C)cc1 ... 2.71 ×10⁻⁶ cm/s
3. CC(=O)C1(C(=O)N[C@H](C(=O)N2C[C@H](O)C[C@H]2C(=O)NCc2ccc(-c3scnc3C)cc2)C(C)(C)C)CC1 ... 1.5 ×10⁻⁶ cm/s
4. Cc1ncsc1-c1ccc(CNC(=O)[C@@H]2C[C@@H](O)CN2C(=O)[C@@H](NC(=O)C2CC2)C(C)(C)C)cc1 ... 0.61 ×10⁻⁶ cm/s
5. CC(=O)N[C@H](C(=O)N1C[C@H](O)C[C@H]1C(=O)NCc1ccc(-c2scnc2C)cc1)C(C)(C)C ... 0.12 ×10⁻⁶ cm/s
6. Cc1ncsc1-c1ccc(CNC(=O)[C@@H]2C[C@@H](O)CN2C(=O)[C@@H](NC(=O)C2(C#N)CC2)C(C)(C)C)cc1 ... 1.94 ×10⁻⁶ cm/s
7. Cc1ncsc1-c1ccc(CNC(=O)[C@@H]2C[C@@H](O)CN2C(=O)[C@@H](NC(=O)C2CCC2)C(C)(C)C)cc1 ... 1.16 ×10⁻⁶ cm/s
8. Cc1ncsc1-c1ccc(CNC(=O)[C@@H]2C[C@@H](O)CN2C(=O)[C@@H](NC(=O)CO)C(C)(C)C)cc1 ... 0.01 ×10⁻⁶ cm/s
9. Cc1ncsc1-c1ccc(CNC(=O)[C@@H]2C[C@@H](O)CN2C(=O)[C@@H](NC(=O)C2COC2)C(C)(C)C)cc1 ... 0.03 ×10⁻⁶ cm/s
